system: SF-268 CNS; assay: NCI tumour cell line growth inhibition, 48 h
Parameter: TGI

INSERT INTO measurements (molecule, experimental_result) VALUES
  ('O=C1CCCC(=O)C1=C(O)CCCCCCCCCCc1ccccc1', '> 100 µM'),
  ('Cc1cc(Cl)ccc1NC(=O)CC1SC(N)=NC1=O (stereo not drawn)', '> 100 µM'),
  ('Cc1cc(C)nc(NS(=O)(=O)c2ccc(NNC(=O)c3cccc4c(NNc5ccc(S(=O)(=O)Nc6nc(C)cc(C)n6)cc5)c5ccccc5nc34)cc2)n1', '61 µM'),
  ('COC(=O)c1oc2c(O)c(OC)c(Br)cc2c1C', '> 100 µM'),
  ('COc1ccc(NC(=O)COC(=O)c2cccc3c(=O)c4ccccc4[nH]c23)cc1', '55.2 µM');

Inquiry: Notebook: pull reported TGI for SF-268 CNS, entry Clc1ccc2c(c1)CC1C[N+]3=C(CCCC3)C1=C2 (stereo not drawn)
Reply text: > 100 µM

Inquiry: Another molecule: N#CCC12CC=CCC1=C(O)C(=O)c1ccc(O)cc12 (stereo not drawn)
Reply text: > 100 µM

* * *

test system: SF-268 CNS; assay: NCI tumour cell line growth inhibition, 48 h
Overview of reported TGI across a group of compounds:

Use these answered entries as a reference point.
INSERT INTO measurements (compound, experimental_result) VALUES
  ('O=C1CSC(=S)N1Cc1cccnc1', '23.3 µM'),
  ('CC(C)/C(Cl)=N\OC(=O)Nc1ccc(F)c([N+](=O)[O-])c1', '27.6 µM'),
  ('CC(=O)OC1(C#N)CC2OC1C1C2N1C(=O)OC(C)(C)C (stereo unspecified)', '> 100 µM'),
  ('COc1ccc(/C=C(\C(=O)OCC(C)C)c2ccc(OC)c(OC)c2)cc1OC', '> 100 µM'),
  ('O=Cc1[nH]c(=O)[nH]c(=O)c1CCl', '> 100 µM'),
  ('COP(=O)(OC)C(O)/C=C(\Cl)c1ccc(Cl)cc1 (stereo unspecified)', '> 100 µM'),
  ('c1cc2cc(c1)CN1CCNCCN(CCNCC1)Cc1cccc(c1)CN1CCNCCN(CCNCC1)C2', '> 100 µM'),
  ('c1ccc2c(c1)CCN1CCc3c([nH]c4ccccc34)C21 (stereo unspecified)', '> 100 µM');

Inquiry: Checklist item: TGI tested on SF-268 CNS, entry COCOCc1cc(OCc2ccccc2)c(OC)cc1Br , value?
Reply text: > 100 µM

Inquiry: Next compound: O=c1[nH]c(=O)n(C2OC(CO)C(O)C2O)cc1OCCc1ccccc1 (stereo unspecified)
Reply text: > 100 µM

Inquiry: Try this compound too: O=c1[nH]ccc2nc(-c3ccc(CN4CCC(c5nc(-c6ccccn6)n[nH]5)CC4)cc3)c(-c3ccccc3)cc12
Reply text: > 100 µM

* * *

tested on: M14 melanoma; assay: NCI tumour cell line growth inhibition, 48 h
Reported TGI values for a set of compounds

Below are worked cases with known answers.
INSERT INTO results (compound, parameter, experimental_result) VALUES
  ('NC1=NN(c2ccccc2)C2(c3ccncc3C(=O)O)C1C(N)=NN2c1ccccc1 (stereo not given)', 'TGI', '> 100 µM'),
  ('O=C1c2ccccc2C(=O)C2C3c4ccccc4C(c4ccccc43)C12 (stereo not given)', 'TGI', '> 100 µM'),
  ('COC(=O)c1c(C)cc2c(c1O)C1(O)C(=O)c3cc4c(c(O)c3C(=O)C1(OC)C(O)C2)C(=O)C=C(NC1OC(C)C(OC)C(O)C1OC)C4=O (stereo not given)', 'TGI', '0.262 µM'),
  ('O=C1CCCC(=O)C1=C(O)CCCCCCCCCCc1ccccc1', 'TGI', '> 100 µM');

Inquiry: For M14 melanoma, provide TGI of Cc1ccc(NC(=O)C(=O)C2NC(=S)NC2=O)c([N+](=O)[O-])c1 (stereo not given) please.
Reply text: > 100 µM

Inquiry: Another: O=C(Nc1ccccc1)Nn1c(-c2cccs2)nc2ccc(I)cc2c1=O
Reply text: > 100 µM

Inquiry: Also COc1cc2c3c(n(CCCNC(=O)OCC4c5ccccc5-c5ccccc54)c(=O)c2cc1OC)-c1cc2c(cc1C3=O)OCO2 , if possible.
Reply text: > 100 µM

Inquiry: And O=C(N/N=C/C=C/c1ccc([N+](=O)[O-])o1)c1ccc(Br)s1 ?
Reply text: 42.1 µM

Inquiry: Input c1ccc2c(c1)CCN1CCc3c([nH]c4ccccc34)C21 (stereo not given)
Reply text: 34 µM

Inquiry: // same read-out, input: Cc1nc(N)sc1N=Nc1cc(Cl)c([N+](=O)[O-])cc1Cl
Reply text: > 100 µM

* * *

Values of GI50 reported for MDA-MB-435 appear below.

Answered cases to consult:
INSERT INTO measurements (smiles_data, tested_system, parameter, experimental_result) VALUES
  ('O=C(Nc1cccc([N+](=O)[O-])c1)c1ccc2ccccc2c1O', 'MDA-MB-435', 'GI50', '3.47 µM'),
  ('COc1cc2c3c(n(CCCCNC(=O)OCC4c5ccccc5-c5ccccc54)c(=O)c2cc1OC)-c1cc2c(cc1C3=O)OCO2', 'MDA-MB-435', 'GI50', '64.9 µM');

Pending compound:
Inquiry: Look at this compound and give its reported GI50. CC1(C)N=C(N)N=C(N)N1c1ccc(OCC(=O)N2CCOCC2)c(Cl)c1
Reply text: 0.565 µM

* * *

tested on: SNB-75 CNS; assay: NCI tumour cell line growth inhibition, 48 h; in the data active = GI50 below about 0.43 µM; inactive = the rest
Select the correct class. Options are T = active, F = inactive and nothing else.

INSERT INTO results (molecule, category_label) VALUES
  ('CCCCCCCCCCCCCCCCOC(=O)c1c(C)[nH]c(/C=C2\N=C(c3ccc[nH]3)C=C2OC)c1C', 'F');

Inquiry: Any idea what this test logged for O=C(Nc1cccc([N+](=O)[O-])c1)c1ccc2ccccc2c1O ?
Reply text: F

Inquiry: Record: CCSc1nc(N2CCCCC2)c2cn[nH]c2n1
Reply text: F

Inquiry: Moving on to CC1(C)N=C(N)N=C(N)N1c1ccc(OCC(=O)N2CCOCC2)c(Cl)c1
Reply text: F

* * *

tested on: NCI/ADR-RES ovarian; test: NCI tumour cell line growth inhibition, 48 h
Parameter: GI50

Inquiry: Recorded GI50 for O=c1[nH]ccc2nc(-c3ccc(CN4CCC(c5nc(-c6ccccn6)n[nH]5)CC4)cc3)c(-c3ccccc3)cc12 , please?
Reply text: 36.7 µM

Inquiry: Can you check O=c1oc2ccc(F)cc2c(=O)n1-c1ccc(Cl)cc1F next?
Reply text: 1.18 µM

Inquiry: Now this one: COc1cc(C2CC(c3ccc(Nc4ccnc5cc(Cl)ccc45)cc3)=NN2C=O)cc(OC)c1OC (stereo not given)
Reply text: 7.88 µM

Inquiry: Try Cc1ccc(/C=C/C(=O)c2ccc(N)cc2)c(C)c1 next.
Reply text: 6.65 µM

Inquiry: Same thing, different compound: O=C1c2cccc3cccc(c23)C(=O)N1CCCCN1CCN(CCCCOc2ccc(-c3nc4ccc(N5CCOCC5)cc4[nH]3)cc2)CC1
Reply text: > 100 µM

* * *

test system: SN12C renal; experiment: NCI tumour cell line growth inhibition, 48 h
Reported TGI values for a set of molecules
The reply should contain only the number, in µM.

INSERT INTO assay_data (molecule, tested_system, parameter, experimental_result) VALUES
  ('COC(=O)c1c(C)cc2c(c1O)C1(O)C(=O)c3cc4c(c(O)c3C(=O)C1(OC)C(O)C2)C(=O)C=C(NC1OC(C)C(OC)C(O)C1OC)C4=O (stereo not given)', 'SN12C renal', 'TGI', 0.243);

Inquiry: Request: TGI, test system SN12C renal, entry O=c1oc2cc(O)ccc2cc1-c1nc2ccccc2s1
Reply text: 49

* * *

test system: UACC-62 melanoma; test: NCI tumour cell line growth inhibition, 48 h; in the data active means GI50 below about 0.43 µM; inactive means the rest
I would appreciate it if you answered using one of these outcomes: active, inactive

Example entries and their recorded answers appear below.
INSERT INTO measurements (molecule, tested_system, category_label) VALUES
  ('CC(C)(C)c1cn2cccc(C(=O)N3CCN(CC(=O)Nc4ccc(Cl)cc4C(=O)c4ccccc4Cl)CC3)c2n1', 'UACC-62 melanoma', 'inactive'),
  ('Cc1ccc(NSc2ccccc2[N+](=O)[O-])cc1', 'UACC-62 melanoma', 'active'),
  ('C/C1=C\CC[C@@]2(C)O[C@@H]2C[C@@H]2[C@H](C/C(C)=C/CC1)OC(=O)C21CCN=N1 (stereo partly drawn)', 'UACC-62 melanoma', 'inactive'),
  ('O=C(Nc1cccc([N+](=O)[O-])c1)c1ccc2ccccc2c1O', 'UACC-62 melanoma', 'inactive');

Inquiry: What classification did COc1cc(/C=C/C(=O)C(C(=O)/C=C/c2ccc(OC(=O)CCNc3nnc(C)s3)c(OC)c2)C(=O)CCNc2nnc(C)s2)ccc1OC(=O)CCNc1nnc(C)s1 end up with in this test?
Reply text: inactive
